Reported half-life values for a set of compounds
- Assay Notes: Pharmacokinetics assay in SD rats, intragastric administration
- Assay type: in vivo, Sprague-Dawley (SD) rats
- Details: both sexes, Sprague-Dawley, rat, plasma, po, 10 mg/kg, read-out: Half-Life T½ (converted)
Quick reminder: number only, in min, skip the unit.

Some entries whose results are on file:
Compound | Unit Symbol | half-life
Cc1c(F)cccc1Oc1cc(=O)n(C)c(Nc2ccc(I)cc2F)c1C(N)=O [Example 1] | min | 397
Cc1ncccc1Oc1cc(=O)n(C)c(Nc2ccc(I)cc2F)c1C(N)=O [Example 29] | min | 227
Cc1ccc(Oc2cc(=O)n(C)c(Nc3ccc(I)cc3F)c2C(N)=O)cn1 [Example 31] | min | 247

Turning now to a further record.
For reference, reported half-life for Cc1cc(F)ccc1Oc1cc(=O)n(C)c(Nc2ccc(I)cc2F)c1C(N)=O [Example 22] stands at 431

====

Reported pIC50 values for a set of molecules
- Measured Target: CYP2C19 (Homo sapiens, UniProt P33261)
- Sequence (P33261 whole entry): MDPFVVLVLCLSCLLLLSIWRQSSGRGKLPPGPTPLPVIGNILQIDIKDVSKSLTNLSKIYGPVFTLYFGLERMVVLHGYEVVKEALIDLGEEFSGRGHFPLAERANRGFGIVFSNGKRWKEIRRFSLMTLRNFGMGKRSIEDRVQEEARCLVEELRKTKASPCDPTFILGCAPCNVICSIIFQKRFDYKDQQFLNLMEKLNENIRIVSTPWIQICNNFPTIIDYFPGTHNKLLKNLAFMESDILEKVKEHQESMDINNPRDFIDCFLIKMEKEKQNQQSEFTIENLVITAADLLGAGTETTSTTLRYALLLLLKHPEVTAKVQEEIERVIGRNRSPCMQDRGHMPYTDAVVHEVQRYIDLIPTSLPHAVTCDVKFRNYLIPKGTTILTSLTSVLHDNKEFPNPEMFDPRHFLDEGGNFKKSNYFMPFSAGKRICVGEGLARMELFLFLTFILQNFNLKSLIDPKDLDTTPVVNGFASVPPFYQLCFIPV
pIC50: −log10 of the molar value.

Chemical String | Measured Target | pIC50
Cc1ccc(Oc2cc(=O)n(C)c(Nc3ccc(I)cc3F)c2C(N)=O)cn1 | CYP2C19 (Homo sapiens, UniProt P33261) | < 5.00

For reference, reported pIC50 for Cc1cc(F)ccc1Oc1cc(=O)n(C)c(Nc2ccc(I)cc2F)c1C(N)=O stands at < 5.00

====

- Assay Notes: Pharmacokinetics assay in SD rats, intragastric administration
- Format: in vivo, Sprague-Dawley (SD) rats
- Details: both sexes, Sprague-Dawley, rat, plasma, po, 10 mg/kg, read-out: Plasma Conc. Cmax
Value Kind: Cmax (ng/mL)
Quick reminder: number only, in ng/mL, skip the unit.

Compound | Unit Symbol | Cmax
Cc1c(F)cccc1Oc1cc(=O)n(C)c(Nc2ccc(I)cc2F)c1C(N)=O [Example 1] | ng/mL | 56.3
Cc1ccc(Oc2cc(=O)n(C)c(Nc3ccc(I)cc3F)c2C(N)=O)cn1 [Example 31] | ng/mL | 3370
Cc1cc(F)ccc1Oc1cc(=O)n(C)c(Nc2ccc(I)cc2F)c1C(N)=O [Example 22] | ng/mL | 108

Turning now to a further record.
For reference, reported Cmax for Cc1ncccc1Oc1cc(=O)n(C)c(Nc2ccc(I)cc2F)c1C(N)=O [Example 29] stands at 1440

====

- Measured Target: MEK1 (Recombinant Human Protein) (Homo sapiens, UniProt Q02750)
- Sequence (Q02750 whole entry): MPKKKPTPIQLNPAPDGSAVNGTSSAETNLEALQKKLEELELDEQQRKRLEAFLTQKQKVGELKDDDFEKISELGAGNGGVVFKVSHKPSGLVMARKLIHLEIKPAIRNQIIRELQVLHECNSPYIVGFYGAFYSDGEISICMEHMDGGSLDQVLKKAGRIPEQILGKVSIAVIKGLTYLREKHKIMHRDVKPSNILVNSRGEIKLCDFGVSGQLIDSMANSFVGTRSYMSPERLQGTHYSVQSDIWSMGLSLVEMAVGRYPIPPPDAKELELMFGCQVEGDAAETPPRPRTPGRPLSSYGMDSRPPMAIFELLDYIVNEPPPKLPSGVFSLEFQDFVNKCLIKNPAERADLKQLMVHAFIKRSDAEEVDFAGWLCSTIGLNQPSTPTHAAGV
- Assay Notes: MEK1 kinase inhibition assay (Z'-LYTE Kinase Assay Kit-Ser/Thr 03 Peptide)
- Details: 4 hours at 37° C, read-out: IC50 for inhibiting MEK kinase (MEK1)
# note: boundary value 6 nM maps to n; IC50 below it maps to y

Chemical String | Assigned Class
Cc1cc(Oc2cc(=O)n(C)c(Nc3ccc(I)cc3F)c2C(N)=O)ccn1 | y
Cc1ccncc1Oc1cc(=O)n(C)c(Nc2ccc(I)cc2F)c1C(N)=O | n
Cc1c(Oc2cc(=O)n(C)c(Nc3ccc(I)cc3F)c2C(N)=O)cccc1O[C@@H]1CCOC1 | y
CC(=O)Nc1cccc(Oc2cc(=O)n(C)c(Nc3ccc(I)cc3F)c2C(N)=O)c1C | y
CCS(=O)(=O)Nc1cccc(Oc2cc(=O)n(C)c(Nc3ccc(I)cc3F)c2C(=O)NC)c1C | n
CCC(=O)Nc1cccc(Oc2cc(=O)n(C)c(Nc3ccc(I)cc3F)c2C(N)=O)c1C | y

Input: Does CNC(=O)c1cccc(Oc2cc(=O)n(C)c(Nc3ccc(I)cc3F)c2C(N)=O)c1C have IC50 strictly under 6 nM?
Output: n

Input: Does Cc1c(Oc2cc(=O)n(C)c(Nc3ccc(I)cc3F)c2C(N)=O)cccc1C(=O)NC1CC1 have IC50 strictly under 6 nM?
Output: y

Input: Does CCS(=O)(=O)Nc1cccc(Oc2cc(=O)n(C)c(Nc3ccc(I)cc3F)c2C(N)=O)c1C have IC50 strictly under 6 nM?
Output: y

====

Reported IC50, CYP3A4t (Homo sapiens).

Some entries whose results are on file:
Molecule | IC50
Cc1ncccc1Oc1cc(=O)n(C)c(Nc2ccc(I)cc2F)c1C(N)=O [Example 29] | > 10 µM
Cc1ccc(Oc2cc(=O)n(C)c(Nc3ccc(I)cc3F)c2C(N)=O)cn1 [Example 31] | > 10 µM

Turning now to a further record.
Reading of IC50 for Cc1cncc(Oc2cc(=O)n(C)c(Nc3ccc(I)cc3F)c2C(N)=O)c1 [Example 30] with CYP3A4t (Homo sapiens): > 10 µM

====

- Assay Notes: Pharmacokinetics assay in SD rats, intragastric administration
- Assay type: in vivo, Sprague-Dawley (SD) rats
- Details: 10 mg/kg
Value Kind: Apparent Distribution Volume Vd (L/kg)
Quick reminder: number only, in L/kg, skip the unit.

Some entries whose results are on file:
Compound | Readout Value
Cc1ccc(Oc2cc(=O)n(C)c(Nc3ccc(I)cc3F)c2C(N)=O)cn1 [Example 31] | 4.483
Cc1ncccc1Oc1cc(=O)n(C)c(Nc2ccc(I)cc2F)c1C(N)=O [Example 29] | 11.319
Cc1c(F)cccc1Oc1cc(=O)n(C)c(Nc2ccc(I)cc2F)c1C(N)=O [Example 1] | 163.863

Turning now to a further record.
For reference, reported Apparent Distribution Volume Vd for Cc1cc(F)ccc1Oc1cc(=O)n(C)c(Nc2ccc(I)cc2F)c1C(N)=O [Example 22] stands at 98.789

====

- Assay Notes: Pharmacokinetics assay in SD rats, intragastric administration
- Assay type: in vivo, Sprague-Dawley (SD) rats
- Details: both sexes, Sprague-Dawley, rat, plasma, po, 10 mg/kg, read-out: Mean Residence Time MRT
Value Kind: MRT (h)
Quick reminder: number only, in h, skip the unit.

Some entries whose results are on file:
Molecule | Readout Value
Cc1cc(F)ccc1Oc1cc(=O)n(C)c(Nc2ccc(I)cc2F)c1C(N)=O [Example 22] | 11.3
Cc1ccc(Oc2cc(=O)n(C)c(Nc3ccc(I)cc3F)c2C(N)=O)cn1 [Example 31] | 4.43
Cc1ncccc1Oc1cc(=O)n(C)c(Nc2ccc(I)cc2F)c1C(N)=O [Example 29] | 3.79

Turning now to a further record.
For reference, reported MRT for Cc1c(F)cccc1Oc1cc(=O)n(C)c(Nc2ccc(I)cc2F)c1C(N)=O [Example 1] stands at 10.5

====

- Measured Target: MAP2K2 (MEK2) Recombinant Human Protein (Homo sapiens)
- Construct: PV3314 (ERK2)
- Sequence (P36507 whole entry): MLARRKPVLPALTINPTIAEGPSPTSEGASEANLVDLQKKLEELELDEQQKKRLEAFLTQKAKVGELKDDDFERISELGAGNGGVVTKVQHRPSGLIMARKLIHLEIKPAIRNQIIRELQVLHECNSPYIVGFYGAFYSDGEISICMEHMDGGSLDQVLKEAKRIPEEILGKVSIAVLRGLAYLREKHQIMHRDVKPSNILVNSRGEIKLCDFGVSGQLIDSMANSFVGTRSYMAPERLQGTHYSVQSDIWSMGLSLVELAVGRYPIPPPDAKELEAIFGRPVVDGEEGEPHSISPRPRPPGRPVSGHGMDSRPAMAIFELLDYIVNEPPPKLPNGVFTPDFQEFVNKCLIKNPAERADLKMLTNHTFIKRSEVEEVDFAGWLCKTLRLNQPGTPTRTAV
- Assay Notes: MEK2 kinase inhibition assay (Z'-LYTE, MEK2/ERK2 coupled)
- Details: recombinant human MEK2 with ERK2, Z'-LYTE, 1.5 hours at 25° C; read-out: IC50 for inhibiting MEK kinase (MEK2)
# note: boundary value 100 nM maps to Not fulfilled; IC50 below it maps to Fulfilled

Compound | Assigned Class
Cc1cc(F)ccc1Oc1cc(=O)n(C)c(Nc2ccc(I)cc2F)c1C(N)=O [Example 22] | Not fulfilled
Cc1ccc(Oc2cc(=O)n(C)c(Nc3ccc(I)cc3F)c2C(N)=O)cn1 [Example 31] | Not fulfilled
Cc1ncccc1Oc1cc(=O)n(C)c(Nc2ccc(I)cc2F)c1C(N)=O [Example 29] | Not fulfilled
Cc1c(F)cccc1Oc1cc(=O)n(C)c(Nc2ccc(I)cc2F)c1C(N)=O [Example 1] | Not fulfilled

Moving on to the next compound.
Input: Does CCS(=O)(=O)Nc1cccc(Oc2cc(=O)n(C)c(Nc3ccc(I)cc3F)c2C(N)=O)c1C [Example 3] have IC50 strictly under 100 nM?
Output: Fulfilled

====

Reported AUC values for a set of compounds
- Assay Notes: Pharmacokinetics assay in SD rats, intragastric administration
- Assay type: in vivo, Sprague-Dawley (SD) rats
- Details: both sexes, Sprague-Dawley, rat, plasma, po, 10 mg/kg, read-out: Area Under Curve AUC
Quick reminder: number only, in ng·h/mL, skip the unit.

Some entries whose results are on file:
Chemical String | AUC [ng·h/mL]
Cc1cc(F)ccc1Oc1cc(=O)n(C)c(Nc2ccc(I)cc2F)c1C(N)=O | 1110
Cc1ccc(Oc2cc(=O)n(C)c(Nc3ccc(I)cc3F)c2C(N)=O)cn1 | 18100

For reference, reported AUC for Cc1ncccc1Oc1cc(=O)n(C)c(Nc2ccc(I)cc2F)c1C(N)=O stands at 6120

For reference, reported AUC for Cc1c(F)cccc1Oc1cc(=O)n(C)c(Nc2ccc(I)cc2F)c1C(N)=O stands at 642

====

Reported IC50, CYP2C9 (Homo sapiens, UniProt P11712).

Compound | IC50
CC(=O)Nc1cccc(Oc2cc(=O)n(C)c(Nc3ccc(I)cc3F)c2C(N)=O)c1C [Example 4] | > 50 µM

For reference, reported IC50 for Cc1cc(F)ccc1Oc1cc(=O)n(C)c(Nc2ccc(I)cc2F)c1C(N)=O [Example 22] stands at > 10 µM

====

- Assay Notes: Pharmacokinetics assay in SD rats, intragastric administration
- Format: in vivo, Sprague-Dawley (SD) rats
- Details: both sexes, Sprague-Dawley, rat, plasma, po, 10 mg/kg, read-out: Clearance CL/F
Value Kind: CL/F (mL/min/kg)
Quick reminder: number only, in mL/min/kg, skip the unit.

Some entries whose results are on file:
Chemical String | CL/F [mL/min/kg]
Cc1ccc(Oc2cc(=O)n(C)c(Nc3ccc(I)cc3F)c2C(N)=O)cn1 | 11.6
Cc1ncccc1Oc1cc(=O)n(C)c(Nc2ccc(I)cc2F)c1C(N)=O | 32.9

For reference, reported CL/F for Cc1cc(F)ccc1Oc1cc(=O)n(C)c(Nc2ccc(I)cc2F)c1C(N)=O stands at 224

For reference, reported CL/F for Cc1c(F)cccc1Oc1cc(=O)n(C)c(Nc2ccc(I)cc2F)c1C(N)=O stands at 280
